Hey, just so you know, these numbers are from ChEMBL document CHEMBL4257579.

Experimental Target: 5-hydroxytryptamine receptor 6 (Homo sapiens, UniProt P50406)
Sequence (P50406 whole entry): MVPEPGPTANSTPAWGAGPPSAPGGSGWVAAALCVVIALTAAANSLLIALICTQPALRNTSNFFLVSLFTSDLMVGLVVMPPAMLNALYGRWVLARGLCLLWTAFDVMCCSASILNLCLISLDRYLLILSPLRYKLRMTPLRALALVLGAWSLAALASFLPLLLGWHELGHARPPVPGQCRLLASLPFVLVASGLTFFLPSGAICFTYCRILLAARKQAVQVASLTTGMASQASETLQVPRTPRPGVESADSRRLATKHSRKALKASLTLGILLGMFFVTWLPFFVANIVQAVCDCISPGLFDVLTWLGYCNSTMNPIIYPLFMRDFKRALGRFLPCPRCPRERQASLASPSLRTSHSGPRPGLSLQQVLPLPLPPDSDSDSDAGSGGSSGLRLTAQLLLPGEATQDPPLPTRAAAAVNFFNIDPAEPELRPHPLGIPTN
Test Method Notes: Displacement of [3H]LSD from human 5-HT6 receptor expressed in HEK cells by radioligand binding assay relative to control
Format: cell-based
Set-up: concentration or dose not given beside the values
Run Conditions: concentration not given here
Measurement Type: inhibition (%)
Field format: number, assumed %, no unit text.

stdin: Give the value of inhibition reported for the following: OC1(c2ccc(Cl)c(C(F)(F)F)c2)CCN(CCCC(c2ccc(F)cc2)c2ccc(F)cc2)CC1
stdout: 96

stdin: Give the value of inhibition reported for the following: COc1ccc(N(CCCCN2CCC(O)(c3ccc(Cl)c(C(F)(F)F)c3)CC2)c2ccc(OC)cc2)cc1
stdout: 50

stdin: Give the value of inhibition reported for the following: OC1(c2ccc(Cl)c(C(F)(F)F)c2)CCN(CCCC=C(c2ccc(F)cc2)c2ccc(F)cc2)CC1
stdout: 54.4

stdin: Give the value of inhibition reported for the following: OC1(c2ccc(Cl)c(C(F)(F)F)c2)CCN(CCCN(c2ccc(F)cc2)c2ccc(F)cc2)CC1
stdout: 86.4

stdin: Give the value of inhibition reported for the following: OC1(c2ccc(Cl)c(C(F)(F)F)c2)CCN(CCCC(c2ccccc2)c2ccccc2)CC1
stdout: 72.8

stdin: Give the value of inhibition reported for the following: OC1(c2ccc(Cl)c(C(F)(F)F)c2)CCN(CCCCCc2ccc(F)cc2)CC1
stdout: 24.7

stdin: Give the value of inhibition reported for the following: OC1(c2ccc(Cl)c(C(F)(F)F)c2)CCN(CCCCN(c2ccc(F)cc2)c2ccc(F)cc2)CC1
stdout: 68

stdin: Give the value of inhibition reported for the following: OC1(c2ccc(Cl)c(C(F)(F)F)c2)CCN(CCCCC(c2ccc(F)cc2)c2ccc(F)cc2)CC1
stdout: 80

---

Hi there, I'd appreciate the recorded pKi for every entry that follows.
Experimental Target: 5-hydroxytryptamine receptor 1A (Homo sapiens)
Sequence (P08908 whole entry): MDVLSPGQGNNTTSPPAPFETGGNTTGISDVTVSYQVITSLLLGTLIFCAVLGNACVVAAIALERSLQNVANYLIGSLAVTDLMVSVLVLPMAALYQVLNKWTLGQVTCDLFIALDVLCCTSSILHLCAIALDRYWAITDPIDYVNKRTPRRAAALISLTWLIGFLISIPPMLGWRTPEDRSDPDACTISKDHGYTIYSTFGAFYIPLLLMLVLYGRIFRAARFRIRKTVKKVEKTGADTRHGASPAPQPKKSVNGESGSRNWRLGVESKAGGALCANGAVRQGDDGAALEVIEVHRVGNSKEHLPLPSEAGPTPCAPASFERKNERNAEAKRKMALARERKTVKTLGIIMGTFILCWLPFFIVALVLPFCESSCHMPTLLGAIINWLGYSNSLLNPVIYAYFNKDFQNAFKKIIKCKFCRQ
The read-out pKi is expressed as -log10 of concentration in moles per litre.

stdin: Give the value of pKi reported for the following: OC1(c2ccc(Cl)c(C(F)(F)F)c2)CCN(CCCCC(c2ccc(F)cc2)c2ccc(F)cc2)CC1
stdout: 5.86

stdin: Give the value of pKi reported for the following: COc1ccc(N(CCCCN2CCC(O)(c3ccc(Cl)c(C(F)(F)F)c3)CC2)c2ccc(OC)cc2)cc1
stdout: 5.00

stdin: Give the value of pKi reported for the following: OC1(c2ccc(Cl)c(C(F)(F)F)c2)CCN(CCCC=C(c2ccc(F)cc2)c2ccc(F)cc2)CC1
stdout: 5.87

stdin: Give the value of pKi reported for the following: OC1(c2ccc(Cl)c(C(F)(F)F)c2)CCN(CCCC(c2ccccc2)c2ccccc2)CC1
stdout: 6.32

---

Tested on: MDA-MB-231
Test Method Notes: Cytotoxicity against human MDA-MB-231 cells assessed as reduction in cell viability after 72 hrs by MTT assay
Type: functional, cell-based
Run Conditions: MDA-MB-231, 72 h
Measurement Type: pIC50
The read-out pIC50 is expressed as -log10 of concentration in moles per litre.

stdin: Give the value of pIC50 reported for the following: OC1(c2ccc(Cl)c(C(F)(F)F)c2)CCN(CCCC=C(c2ccc(F)cc2)c2ccc(F)cc2)CC1
stdout: 5.02

stdin: Give the value of pIC50 reported for the following: OC1(c2ccc(Cl)c(C(F)(F)F)c2)CCN(CCCCC(c2ccc(F)cc2)c2ccc(F)cc2)CC1
stdout: 5.32

stdin: Give the value of pIC50 reported for the following: OC1(c2ccc(Cl)c(C(F)(F)F)c2)CCN(CCCC(c2ccc(F)cc2)c2ccc(F)cc2)CC1 [PENFLURIDOL]
stdout: 5.29

stdin: Give the value of pIC50 reported for the following: OC1(c2ccc(Cl)c(C(F)(F)F)c2)CCN(CCCN(c2ccc(F)cc2)c2ccc(F)cc2)CC1
stdout: 5.46

stdin: Give the value of pIC50 reported for the following: OC1(c2ccc(Cl)c(C(F)(F)F)c2)CCN(CCCCCc2ccc(F)cc2)CC1
stdout: 5.01

stdin: Give the value of pIC50 reported for the following: OC1(c2ccc(Cl)c(C(F)(F)F)c2)CCN(CCCCN(c2ccc(F)cc2)c2ccc(F)cc2)CC1
stdout: 5.04

stdin: Give the value of pIC50 reported for the following: OC1(c2ccc(Cl)c(C(F)(F)F)c2)CCN(CCCC(c2ccccc2)c2ccccc2)CC1
stdout: 5.08

---

Experimental Target: 5-hydroxytryptamine receptor 1D (Homo sapiens, UniProt P28221)
Sequence (P28221 whole entry): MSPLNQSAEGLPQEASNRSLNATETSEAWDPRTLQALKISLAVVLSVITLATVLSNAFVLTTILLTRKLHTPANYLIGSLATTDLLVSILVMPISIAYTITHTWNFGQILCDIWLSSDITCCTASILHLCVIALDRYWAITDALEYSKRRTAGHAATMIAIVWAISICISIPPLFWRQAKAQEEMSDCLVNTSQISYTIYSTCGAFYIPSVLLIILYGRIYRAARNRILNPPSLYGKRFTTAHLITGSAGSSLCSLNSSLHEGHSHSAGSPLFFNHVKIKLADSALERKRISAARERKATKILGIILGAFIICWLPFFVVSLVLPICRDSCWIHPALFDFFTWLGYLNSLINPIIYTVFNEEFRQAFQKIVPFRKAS
Test Method Notes: Displacement of [3H]5-CT from human 5-HT1D receptor expressed in HEK293T cells by radioligand binding assay relative to control
Assay type: cell-based
Parameters: concentration or dose not given beside the values
Run Conditions: concentration not given here
Hi there, I'd appreciate the recorded inhibition for every entry that follows.
Field format: number, assumed %, no unit text.

stdin: Give the value of inhibition reported for the following: OC1(c2ccc(Cl)c(C(F)(F)F)c2)CCN(CCCC(c2ccc(F)cc2)c2ccc(F)cc2)CC1
stdout: 91.3

stdin: Give the value of inhibition reported for the following: OC1(c2ccc(Cl)c(C(F)(F)F)c2)CCN(CCCC(c2ccccc2)c2ccccc2)CC1
stdout: 83.3

stdin: Give the value of inhibition reported for the following: OC1(c2ccc(Cl)c(C(F)(F)F)c2)CCN(CCCCC(c2ccc(F)cc2)c2ccc(F)cc2)CC1
stdout: 79.3

stdin: Give the value of inhibition reported for the following: OC1(c2ccc(Cl)c(C(F)(F)F)c2)CCN(CCCCN(c2ccc(F)cc2)c2ccc(F)cc2)CC1
stdout: 70.6

stdin: Give the value of inhibition reported for the following: OC1(c2ccc(Cl)c(C(F)(F)F)c2)CCN(CCCN(c2ccc(F)cc2)c2ccc(F)cc2)CC1
stdout: 80.7

stdin: Give the value of inhibition reported for the following: OC1(c2ccc(Cl)c(C(F)(F)F)c2)CCN(CCCCCc2ccc(F)cc2)CC1
stdout: 50

stdin: Give the value of inhibition reported for the following: COc1ccc(N(CCCCN2CCC(O)(c3ccc(Cl)c(C(F)(F)F)c3)CC2)c2ccc(OC)cc2)cc1
stdout: 78.8

---

Hi there, I'd appreciate the recorded pKi for every entry that follows.
Experimental Target: Sodium-dependent noradrenaline transporter (Homo sapiens)
Sequence (P23975 whole entry): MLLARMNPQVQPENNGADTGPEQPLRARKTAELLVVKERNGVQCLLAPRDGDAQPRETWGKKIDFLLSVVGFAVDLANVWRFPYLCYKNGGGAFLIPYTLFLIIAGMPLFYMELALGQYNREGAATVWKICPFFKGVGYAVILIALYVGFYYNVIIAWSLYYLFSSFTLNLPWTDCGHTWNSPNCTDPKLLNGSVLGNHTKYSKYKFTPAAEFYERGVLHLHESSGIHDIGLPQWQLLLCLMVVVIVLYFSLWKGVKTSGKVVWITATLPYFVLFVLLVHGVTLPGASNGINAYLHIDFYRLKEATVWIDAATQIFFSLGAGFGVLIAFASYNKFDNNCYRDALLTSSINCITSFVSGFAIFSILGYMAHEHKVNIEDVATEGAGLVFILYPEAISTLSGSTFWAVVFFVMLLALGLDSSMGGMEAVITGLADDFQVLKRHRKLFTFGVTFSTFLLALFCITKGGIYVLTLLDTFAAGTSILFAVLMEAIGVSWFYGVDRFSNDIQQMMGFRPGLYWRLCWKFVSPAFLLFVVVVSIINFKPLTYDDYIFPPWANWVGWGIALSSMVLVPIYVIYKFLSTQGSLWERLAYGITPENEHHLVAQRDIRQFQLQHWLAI
The read-out pKi is expressed as -log10 of concentration in moles per litre.

stdin: Give the value of pKi reported for the following: OC1(c2ccc(Cl)c(C(F)(F)F)c2)CCN(CCCC(c2ccccc2)c2ccccc2)CC1
stdout: 6.29

stdin: Give the value of pKi reported for the following: OC1(c2ccc(Cl)c(C(F)(F)F)c2)CCN(CCCCN(c2ccc(F)cc2)c2ccc(F)cc2)CC1
stdout: 6.34

stdin: Give the value of pKi reported for the following: COc1ccc(N(CCCCN2CCC(O)(c3ccc(Cl)c(C(F)(F)F)c3)CC2)c2ccc(OC)cc2)cc1
stdout: 5.84

stdin: Give the value of pKi reported for the following: OC1(c2ccc(Cl)c(C(F)(F)F)c2)CCN(CCCN(c2ccc(F)cc2)c2ccc(F)cc2)CC1
stdout: 6.04

stdin: Give the value of pKi reported for the following: OC1(c2ccc(Cl)c(C(F)(F)F)c2)CCN(CCCCC(c2ccc(F)cc2)c2ccc(F)cc2)CC1
stdout: 7.11

stdin: Give the value of pKi reported for the following: OC1(c2ccc(Cl)c(C(F)(F)F)c2)CCN(CCCC(c2ccc(F)cc2)c2ccc(F)cc2)CC1
stdout: 6.23

---

Experimental Target: 5-hydroxytryptamine receptor 5A (Homo sapiens, UniProt P47898)
Sequence (P47898 whole entry): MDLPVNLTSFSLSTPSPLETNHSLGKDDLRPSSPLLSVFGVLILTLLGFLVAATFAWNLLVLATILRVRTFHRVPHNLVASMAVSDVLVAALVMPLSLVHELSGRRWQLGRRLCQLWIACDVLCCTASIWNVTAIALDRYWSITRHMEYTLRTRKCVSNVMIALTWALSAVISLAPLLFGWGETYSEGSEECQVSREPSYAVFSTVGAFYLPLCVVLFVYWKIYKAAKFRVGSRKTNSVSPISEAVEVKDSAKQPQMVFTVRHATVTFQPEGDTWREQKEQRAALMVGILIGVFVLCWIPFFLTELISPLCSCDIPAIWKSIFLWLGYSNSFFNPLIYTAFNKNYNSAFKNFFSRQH
Test Method Notes: Displacement of [3H]LSD from human 5-HT5A receptor expressed in Flp-In CHO cells by radioligand binding assay relative to control
Type: cell-based
Set-up: concentration or dose not given beside the values
Run Conditions: concentration not given here
Measurement Type: inhibition (%)
Field format: number, assumed %, no unit text.

stdin: Give the value of inhibition reported for the following: OC1(c2ccc(Cl)c(C(F)(F)F)c2)CCN(CCCC(c2ccc(F)cc2)c2ccc(F)cc2)CC1
stdout: 95

stdin: Give the value of inhibition reported for the following: OC1(c2ccc(Cl)c(C(F)(F)F)c2)CCN(CCCC=C(c2ccc(F)cc2)c2ccc(F)cc2)CC1
stdout: 21.4

stdin: Give the value of inhibition reported for the following: OC1(c2ccc(Cl)c(C(F)(F)F)c2)CCN(CCCCCc2ccc(F)cc2)CC1
stdout: 16.4

stdin: Give the value of inhibition reported for the following: OC1(c2ccc(Cl)c(C(F)(F)F)c2)CCN(CCCCN(c2ccc(F)cc2)c2ccc(F)cc2)CC1
stdout: 50

stdin: Give the value of inhibition reported for the following: OC1(c2ccc(Cl)c(C(F)(F)F)c2)CCN(CCCN(c2ccc(F)cc2)c2ccc(F)cc2)CC1
stdout: 67.7

stdin: Give the value of inhibition reported for the following: OC1(c2ccc(Cl)c(C(F)(F)F)c2)CCN(CCCCC(c2ccc(F)cc2)c2ccc(F)cc2)CC1
stdout: 75.8

stdin: Give the value of inhibition reported for the following: COc1ccc(N(CCCCN2CCC(O)(c3ccc(Cl)c(C(F)(F)F)c3)CC2)c2ccc(OC)cc2)cc1
stdout: 50
